Target: human RIOK2 protein (Homo sapiens, UniProt Q9BVS4)
Construct: glutathione S-transferase is fused to N-terminal of a full-length human RIOK2 protein; GST (glutathione S-transferase) (N); purchased CarnaBio, Inc; host or cells: baculovirus-Sf21 cell expression system
Sequence (Q9BVS4 whole entry, the tested form may be a part): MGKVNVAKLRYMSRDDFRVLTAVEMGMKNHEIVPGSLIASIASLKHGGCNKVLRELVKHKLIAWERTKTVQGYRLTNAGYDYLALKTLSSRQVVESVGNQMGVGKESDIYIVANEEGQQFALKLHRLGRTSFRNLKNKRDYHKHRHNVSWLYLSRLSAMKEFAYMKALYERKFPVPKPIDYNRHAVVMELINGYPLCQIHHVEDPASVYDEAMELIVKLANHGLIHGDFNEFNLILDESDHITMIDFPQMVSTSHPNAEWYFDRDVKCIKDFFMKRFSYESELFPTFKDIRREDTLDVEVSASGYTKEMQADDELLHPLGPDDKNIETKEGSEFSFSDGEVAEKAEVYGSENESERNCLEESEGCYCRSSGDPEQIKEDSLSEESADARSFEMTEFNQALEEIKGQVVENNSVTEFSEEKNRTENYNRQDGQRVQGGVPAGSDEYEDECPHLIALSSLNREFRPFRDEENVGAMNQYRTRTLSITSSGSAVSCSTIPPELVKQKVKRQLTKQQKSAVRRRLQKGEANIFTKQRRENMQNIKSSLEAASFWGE
Assay: RIOK2 autophosphorylation ELISA (Test Example 4)
Format: biochemical
Details: read-out: Inhibitory activity at 1 μM (%)
Where a name gives a salt, the structure may show the parent alone.
inhibition at 1 µM class ranges: low-valued = under 20%, mid-valued = from 20% up to 40%, high-valued = 40% and over

Exercise: Which category fits this record: `CCN(CC)CCNC(=O)c1c(C)[nH]c(/C=C2\C(=O)Nc3ccc(-c4cnn(C5CCOCC5)c4)cc32)c1C`
Key: mid-valued

Exercise: Please indicate the class for `CCN(CC)CCNC(=O)c1c(C)[nH]c(/C=C2\C(=O)Nc3ccc(-c4cnn(-c5nccs5)c4)cc32)c1C` based on its inhibition at 1 µM.
Key: low-valued

Exercise: Each molecule maps to one class by inhibition at 1 µM. Which class for `CCN(CC)CCNC(=O)c1c(C)[nH]c(/C=C2\C(=O)Nc3ccc(-c4ncc(-c5ccccc5)o4)cc32)c1C` ?
Key: mid-valued

Exercise: # classify by inhibition at 1 µM band: `CCN(CC)CCNC(=O)c1c(C)[nH]c(/C=C2\C(=O)Nc3ccc(-c4ccnn4-c4ccc(OC)cc4)cc32)c1C`
Key: mid-valued

Exercise: State the class of the molecule shown: `CCN(CC)CCNC(=O)c1c(C)[nH]c(/C=C2\C(=O)Nc3ccc(-c4ccnn4-c4ccccc4)cc32)c1C`
Key: high-valued

Exercise: Please classify: Cc1[nH]c(/C=C2\C(=O)Nc3ccc(-c4cnn(-c5ccccc5)c4)cc32)c(C)c1C(=O)N[C@H]1CCCNC1 [Example 88, hydrochloride]
Key: low-valued

Exercise: # bin lookup: classify `CCN(CC)CCNC(=O)c1c(C)[nH]c(/C=C2\C(=O)Nc3ccc(-c4cnn(-c5cnccn5)c4)cc32)c1C` by its inhibition at 1 µM
Key: high-valued

Exercise: Which bin, given its inhibition at 1 µM, does `CCN(CC)CCNC(=O)c1c(C)[nH]c(/C=C2\C(=O)Nc3ccc(-c4ccnn4-c4cccc(OC)c4)cc32)c1C` occupy?
Key: high-valued

Exercise: Category lookup for the molecule `CCN(CC)CCNC(=O)c1c(C)[nH]c(/C=C2\C(=O)Nc3ccc(-c4cnn(-c5ccccc5Cl)c4)cc32)c1C`
Key: low-valued

Exercise: Would you mind sorting `Cc1[nH]c(/C=C2\C(=O)Nc3ccc(-c4cnn(-c5ccccc5)c4)cc32)c(C)c1C(=O)NC1CCNCC1` into the appropriate category?
Key: low-valued

Exercise: Lab note: which band did `CCN(CC)CCNC(=O)c1c(C)[nH]c(/C=C2\C(=O)Nc3ccc(-c4cnn(-c5ncccn5)c4)cc32)c1C` land in?
Key: high-valued

Exercise: Hi there! Could you help me figure out the category for `Cc1[nH]c(/C=C2\C(=O)Nc3ccc(-c4cnn(-c5ccccc5)c4)cc32)c(C)c1C(=O)NCC1(N)CCCC1` please?
Key: low-valued
